- Test system: U-251
- Procedure text: NCI tumour cell line growth inhibition, 48 h
The source made the active and inactive calls. Cut-off read from the data, not from the text of the source: active = GI50 up to about 1.1 µM and inactive = higher.
API: response.call in active, inactive

Please review the entries below; each comes with its answer.
O=C(O)CNC(=O)c1ccc2cc(C(=O)N3CC(CCl)c4ccc([N+](=O)[O-])cc43)[nH]c2c1 (stereo unspecified) :: inactive
Cc1cn(C2CC(N)C(CN)O2)c(=O)[nH]c1=O (stereo unspecified) :: inactive
Nc1ccc(C2=N/C(=C\c3cccc(N)c3)C(=O)O2)cc1 :: inactive
NC(Cc1cccc([N+](=O)[O-])c1)C(=O)O (stereo unspecified) :: inactive
NC(Cc1ccc(O)c(O)c1)P(=O)(O)O (stereo unspecified) :: inactive
C[C@H](CCC(=O)O)[C@H]1CC[C@H]2[C@@H]3[C@H](O)C[C@@H]4C[C@H](O)CC[C@]4(C)[C@H]3C[C@H](O)[C@]12C :: inactive
O=C1/C(=C/c2ccc(Cl)cc2)N=C(c2ccccc2)N1/N=C/c1ccccc1O :: inactive
Cc1ccc(C(=O)N(C(C)C)C(C)C)cc1/N=N/N(C)C :: inactive
CC(C)(C)c1ccc(OCCOc2ccc(C(C)(C)C)cc2NC=O)c(NC=O)c1 :: inactive
CCCCCCCCCCCCCCCCc1c(O)nc(NC#N)nc1C(=O)OC :: inactive

-- ask State the result this test recorded for O=C(O)/C=C/C(=O)Nc1nc[nH]n1 .
-- reply inactive

-- ask Then what about the compound CC1C2=CC=C(O2)C(C)(C)C2=CC=C(O2)C(C)(C)C2=CC=C(O2)C(C)(C)C2=CC=C1O2 ?
-- reply inactive

-- ask Now the compound Clc1ccc(C(Cc2ccccc2)c2c(Cl)nc(N3CCNCC3)nc2Cl)cc1 (stereo unspecified)
-- reply inactive

-- ask Subsequent entry: COc1ccc(CCn2cnc3ccccc32)cc1
-- reply inactive

-- ask What about Cc1ccc(C(=O)CCl)o1 ?
-- reply inactive

-- ask Now give it for Cc1cc(Br)c(N2C3=C(CC4=C2CCCC4=O)C(=O)CCC3)c(Br)c1 too.
-- reply inactive

-- ask Cool, now COC1C(O)C(C)OC(O[C@@H]2C[C@H]3CC[C@@H]4[C@H](CC[C@]5(C)[C@@H](C6=CC(=O)OC6)CC[C@]45O)[C@@]3(C)[C@H](O)C2)C1O (stereo partly specified)
-- reply active

-- ask Thanks! And C/C(=N/Nc1nc(C)cc(O)n1)C(=O)O ?
-- reply inactive
